test system: AncSZ; test: phosphorylation enrichment, bacterial display (enrichment ratio); higher = better substrate or ligand; peptides without Tyr show the background;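 note: frequency after pTyr selection over input frequency; kinase dosed for 20-30% of maximal phosphorylation in three min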
Recorded phosphorylation enrichment values for a group of sequences are listed next.
Reply briefly: the number, and no unit.

sequence code: GQLIVYAPPEW [CNTN6_Y315_F314V]
system: AncSZ;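 note: 11-residue human phosphosite peptides and single-mutation variants displayed on the E. coli surface, counted by deep sequencing, each peptide's frequency after selection divided by its frequency in the unselected input library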;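 note: frequency after pTyr selection over input frequency; kinase dosed for 20-30% of maximal phosphorylation in three min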
result number: 1.02

[ask] What phosphorylation enrichment value was documented for this sequence, PVKDPYVMFPQ [PLEKHG2_Y489] ?
[reply] 0.982

[ask] What value of phosphorylation enrichment has been reported for the following sequence? SVSNNYIQTLG [CTNND1_Y174]
[reply] 0.606

[ask] Given the entry EEGNPYYSGAR [MCCC2_Y520_S523G] , report its measured phosphorylation enrichment.
[reply] 0.898

[ask] Name the recorded phosphorylation enrichment for QLYGPYLRIHA [BSCL2_Y213_A212P] .
[reply] 0.87

[ask] What value of phosphorylation enrichment has been recorded for this entry: CDGKEYDPVEA [MAPRE2_Y167_Y162C]
[reply] 1.36

[ask] Endpoint output: phosphorylation enrichment of DLTQDYEEWKR [ORC6_Y232] . Value?
[reply] 1.8

[ask] Data request, read-out phosphorylation enrichment, for NVSILYTASQA [CTNNA1_Y222_P219S]
[reply] 0.892

[ask] Which phosphorylation enrichment is listed for RFLKDYGEFEV [GINS1_Y156_C152Y_YF] ?
[reply] 1.04

[ask] Name the recorded phosphorylation enrichment for LLTALYFISRG [KCNH2_Y780] .
[reply] 1.57

[ask] Given the entry NGSKAYAYVHF [PABPC5_Y147_G146A] , report its measured phosphorylation enrichment.
[reply] 1.06

[ask] Quick check: phosphorylation enrichment of VYSSDYFSFVL [USP24_Y2138] ?
[reply] 2.21

[ask] Suppose we examine the sequence PLGVLYKVKVY [PTS_Y128_V124L] ; what phosphorylation enrichment value has been reported?
[reply] 1.61

[ask] Any idea what its phosphorylation enrichment is? The sequence is QEIATYRRLLE [KRT14_Y415]
[reply] 0.689
